Biological target: wild-type Choristoneura fumiferana EcR (D, E and F domains) (Choristoneura fumiferana, UniProt O77240)
Type: cell-based
Conditions: rac; WT-CtEcR, 3T3 Cells
Would you kindly list EC50 for each of these compounds?

QUERY: Respond only with EC50 recorded for CCCC(N(NC(=O)c1cccc(OC)c1CC)C(=O)c1cc(C)cc(C)c1)C(C)(C)C (racemic)
RESULT: 1.63 nM

QUERY: Provide only the value of recorded EC50 for CCCC(N(NC(=O)c1c(Cl)cccc1Cl)C(=O)c1cc(C)cc(C)c1)C(C)(C)C (racemic)
RESULT: ~300 nM

QUERY: Consider the compound CCCC(N(NC(=O)OC(C)(C)C)C(=O)c1cc(C)cc(C)c1)C(C)(C)C (racemic) and give its recorded EC50.
RESULT: > 33000 nM
